TARGET_OR_SYSTEM: T1, Macaca fascicularis (crab-eating macaque) TFR1 expressed on CHO-S cells (Macaca fascicularis (crab-eating …))
T1 construct: CHO-S cells transfected with a vector expressing fasTFR1; also called fasTFR1; CHO-S-fasTFR1 cells
T1 chain: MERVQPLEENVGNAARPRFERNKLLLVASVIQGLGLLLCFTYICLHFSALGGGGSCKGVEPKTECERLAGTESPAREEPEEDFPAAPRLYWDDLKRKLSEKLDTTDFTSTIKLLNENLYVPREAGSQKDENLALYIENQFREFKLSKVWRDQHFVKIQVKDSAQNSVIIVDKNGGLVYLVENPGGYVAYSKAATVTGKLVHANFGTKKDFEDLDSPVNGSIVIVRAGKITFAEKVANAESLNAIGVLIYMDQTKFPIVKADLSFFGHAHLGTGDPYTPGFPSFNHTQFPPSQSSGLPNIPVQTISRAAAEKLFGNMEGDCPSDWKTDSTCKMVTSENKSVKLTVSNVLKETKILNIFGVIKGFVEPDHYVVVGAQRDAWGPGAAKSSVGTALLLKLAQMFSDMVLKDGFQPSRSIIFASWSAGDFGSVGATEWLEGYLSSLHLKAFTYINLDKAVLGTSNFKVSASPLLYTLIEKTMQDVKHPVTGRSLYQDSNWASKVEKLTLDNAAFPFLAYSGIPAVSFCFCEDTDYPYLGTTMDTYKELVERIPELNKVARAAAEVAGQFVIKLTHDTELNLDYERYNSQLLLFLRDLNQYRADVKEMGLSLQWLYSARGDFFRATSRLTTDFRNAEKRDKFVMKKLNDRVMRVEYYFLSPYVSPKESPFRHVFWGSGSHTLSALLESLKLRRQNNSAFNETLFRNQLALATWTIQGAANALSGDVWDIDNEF
TEST_NAME: flow cytometry on CHO-S-fasTFR1 cells; anti-hIgG-Fc Alexa Fluor 647 secondary
Procedure: CHO-S-hTFR1 cells or CHO-S-fasTFR1 cells were transferred to a 96-well plate at a density of 10⁵ cells/well respectively. Serially diluted sample anti-TFR1 antibodies were added to the 96-well plate, and incubated at 4° C. for 30 minutes. PBS was used as a negative control (NC).
Would you mind telling me the reported Percentage of Positive Cells of each entry?
Number only, in %; omit the unit.

Challenge: Entry 24G5 (antibody, human IgG1, V domains shown, Heavy-chain antibody without light chain; also called anti-TFR1 antibody 24G5) VH: QLQLQESGGGLVQPGGSLRLTCAASGFTFSSFAMSWVRQAPGKGLERVSEISDSGGNTYYADSVKGRFTISRDNSKNTLYLQMNSLRAEDTAVYYCAKDDSSGWAFNIWDQGTVVTVSS has what Percentage of Positive Cells?
Response given: 51.2

Challenge: Entry 24A1 (antibody, human IgG1, V domains shown, Heavy-chain antibody without light chain; also called anti-TFR1 antibody 24A1) VH: EVQLVESGGGLVQPGGSLRLTCAASGFTFSSYAMSWVRQAPGKGLERVSEISGSGSSTNYADSVKGRFTISRDNSKNTLYLQMNSLRAEDTAVYYCAKDDSSGWAFNIWDQGTVVTVSS has what Percentage of Positive Cells?
Response given: 50.9

Challenge: Entry JR141-N (antibody, V domains shown, also called positive control; JR141 VH and VL on human IgG1 N297A) VH: EVQLVQSGAEVKKPGESLKISCKGSGYSFTNYWLGWVRQMPGKGLEWMGDIYPGGDYPTYSEKFKVQVTISADKSISTAYLQWSSLKASDTAMYYCARSGNYDEVAYWGQGTLVTVSS VL: DIVMTQTPLSLSVTPGQPASISCRSSQSLVHSNGNTYLHWYLQKPGQSPQLLIYKVSNRFSGVPDRFSGSGSGTDFTLKISRVEAEDVGVYYCSQSTHVPWTFGQGTKVEIK has what Percentage of Positive Cells?
Response given: 37.2

Challenge: Entry 23B8 (antibody, V domains shown, Heavy-chain antibody without light chain; also called anti-TFR1 antibody 23B8) VH: QVTLKESGGGLVKPGGSLRLSCAASGFPFSNAWMNWVRQAPGKGLEWVGHIKSKTDGGTTDYAAPVKGRFTISRDDSKNMVFLQMNSLKTEDTAVYYCTTDRAYCGGDCSHYYYHDLDVWGQGTTVTVSS has what Percentage of Positive Cells?
Response given: 39.6
